target: native Api m 1 (nApi m 1), phospholipase A2 from honeybee venom (Apis mellifera, UniProt P00630 34-167)
Sequence (P00630 34-167): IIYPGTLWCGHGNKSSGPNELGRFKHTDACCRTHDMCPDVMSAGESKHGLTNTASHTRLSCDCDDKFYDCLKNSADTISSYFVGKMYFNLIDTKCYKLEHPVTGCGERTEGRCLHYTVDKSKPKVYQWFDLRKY
Recorded Kd for the following binders
QUANTITY NAME: Kd (pM)

BINDER: AM1-4 IgG1 (monospecific nanobody-based human IgG1) (Fc fusion) QVQLVESGGGLVQAGGSLRLSCAASGRTFSRYAMGWFRQAPGKEREFVSAISGSGGFTDYADSVKGRFTISRDNAKSTVYLRMSSLKPEDTAVYYCAAEGSRGSSTRLDARGTYDYWGQGTQVTVS
QUANTITY NAME: Kd
QUALIFIER SIGN: =
READING: 300

BINDER: AM1-1 IgG1 (monospecific nanobody-based human IgG1) (Fc fusion) QVQLVETGGGLVQAGGSLRLSCATSGTIFSRATMAWYRQTPGKQREWVTTITTSGNTNYADSVKGRFTISRDNAESTLYLQMNSLKPEDTAVYYCNAQFLSSRTNYWGKGTQVTVS
QUANTITY NAME: Kd
QUALIFIER SIGN: =
READING: 1940

BINDER: AM1-22 IgG1 (nanobody-based human IgG1) (Fc fusion) QVQLVESGGGLVQAGGSLRLSCAASGSIFNWAWYRQFPGKQREWVATITSGGNTNLADSVKGRFTISLDNAKNTMYLQMNSLKPEDTAVYYCNSARFRNRDAIWGQGTQVTVS
QUANTITY NAME: Kd
QUALIFIER SIGN: <
READING: 1

BINDER: AM1-21 IgG1 (nanobody-based human IgG1) (Fc fusion) QVQLVESGGGLVQAGGSLRLSCAASGFTLDYYAIGWFRQAPGKEREGVSCITSYDDSTYYTDSVKGRFTISRDNAKNTVYLQMNSLKPEDTAVYYCAAVGTWYLVNWWAPSEYDYWGQGTQVTVS
QUANTITY NAME: Kd
QUALIFIER SIGN: =
READING: 15.3

Numbers sourced from patent US20250206812A1.
